Attribute: TGI
System: UO-31 renal
Assay: NCI tumour cell line growth inhibition, 48 h

These recorded examples may help you get a feel for the data.
Cc1cc(NC(=O)CCc2ccc(N3C(N)=NC(N)=NC3(C)C)cc2)ccc1S(=O)(=O)F :: > 100 µM
c1ccc(-c2cc(-c3cc(-c4ccccn4)[nH]n3)n[nH]2)nc1 :: 73.2 µM
C=C(C)C1CC[C@]2(C(=O)O)CCC3(C)[C@H](CCC4[C@@]5(C)CC[C@H](OC6OC(CO)C(O)C6OC6OC(C)C(O)C(O)C6O)[C@@](C)(CO)C5CC[C@]43C)C12 (stereo partly specified) :: > 100 µM
CC(C)C1OCC(CO)CO1 (stereo unspecified) :: > 100 µM
O=[N+]([O-])C(=C1Nc2ccccc2N1)C(Cl)=C(Cl)Cl :: > 100 µM
O=C(O)C1Cc2nc[nH]c2CN1 (stereo unspecified) :: > 100 µM
CC(C)NC(C)Cc1ccccc1 (stereo unspecified) :: > 100 µM
O=[N+]([O-])c1cc(Cl)ccc1S(=O)(=O)c1ccccc1 :: > 100 µM

## Input Param request: TGI | system UO-31 renal | item COC(=O)C(Cc1ccccc1)NS(=O)(=O)c1ccc(-c2c3nc(c(-c4ccc(S(=O)(=O)NC(Cc5ccccc5)C(=O)OC)cc4)c4ccc([nH]4)c(-c4ccc(S(=O)(=O)NC(Cc5ccccc5)C(=O)OC)cc4)c4nc(c(-c5ccc(S(=O)(=O)NC(Cc6ccccc6)C(=O)OC)cc5)c5ccc2[nH]5)C=C4)C=C3)cc1 (stereo unspecified)
## Output > 100 µM

## Input Param request: TGI | system UO-31 renal | item C=C1C(=O)C=C2C=C3C(=O)C(C)(C)C[C@]3(O)C12C (stereo partly specified)
## Output 14 µM

## Input Param request: TGI | system UO-31 renal | item CC1=CCC2(C#N)CCC1C2=O (stereo unspecified)
## Output > 100 µM

## Input Param request: TGI | system UO-31 renal | item CC(=O)N1c2ccccc2C23CCN4CC5=CCOC(O)C(C5CC42)C13 (stereo unspecified)
## Output > 100 µM

## Input Param request: TGI | system UO-31 renal | item CS(=O)(=O)c1ccc(C(F)(F)F)cc1NC(=O)Nc1cnc(Oc2ccc(-c3cc(Cl)cnc3N)cc2)nc1
## Output 6.72 µM

## Input Param request: TGI | system UO-31 renal | item Cc1cc(S(=O)(=O)Nc2nc(N)n(C)n2)c(S)cc1Cl
## Output > 10 µM

## Input Param request: TGI | system UO-31 renal | item Cc1ccc(S(=O)(=O)C2=c3ncccc3=C3C(=O)c4ccccc4C(=O)C32)cc1 (stereo unspecified)
## Output > 100 µM

## Input Param request: TGI | system UO-31 renal | item CCCCCN(CCCCC)C(=O)[C@@H](CCC(=O)OCc1ccccc1)NC(=O)c1cc2ccccc2[nH]1
## Output > 100 µM
